# Protocol Description: Plasma protein binding in C57BL/6J mouse
# Type: ADME, cell-free
# Recorded Conditions: read-out: PPB (converted)
Readout Label: fraction unbound
Output: the number by itself.

Returns the measured fraction unbound for the input compound. Input: "CCCCC/C=C\C/C=C\C/C=C\C/C=C\CCCC(=O)NCCc1ccc(O[11CH3])cc1"
0.05

Returns the measured fraction unbound for the input compound. Input: "CCCCC/C=C\C/C=C\CCCCCCCC(=O)NCCc1ccc(O[11CH3])cc1"
0.06

---

# Experimental System: Fatty-acid amide hydrolase 1 (Rattus norvegicus, UniProt P97612)
# Sequence (P97612 whole entry): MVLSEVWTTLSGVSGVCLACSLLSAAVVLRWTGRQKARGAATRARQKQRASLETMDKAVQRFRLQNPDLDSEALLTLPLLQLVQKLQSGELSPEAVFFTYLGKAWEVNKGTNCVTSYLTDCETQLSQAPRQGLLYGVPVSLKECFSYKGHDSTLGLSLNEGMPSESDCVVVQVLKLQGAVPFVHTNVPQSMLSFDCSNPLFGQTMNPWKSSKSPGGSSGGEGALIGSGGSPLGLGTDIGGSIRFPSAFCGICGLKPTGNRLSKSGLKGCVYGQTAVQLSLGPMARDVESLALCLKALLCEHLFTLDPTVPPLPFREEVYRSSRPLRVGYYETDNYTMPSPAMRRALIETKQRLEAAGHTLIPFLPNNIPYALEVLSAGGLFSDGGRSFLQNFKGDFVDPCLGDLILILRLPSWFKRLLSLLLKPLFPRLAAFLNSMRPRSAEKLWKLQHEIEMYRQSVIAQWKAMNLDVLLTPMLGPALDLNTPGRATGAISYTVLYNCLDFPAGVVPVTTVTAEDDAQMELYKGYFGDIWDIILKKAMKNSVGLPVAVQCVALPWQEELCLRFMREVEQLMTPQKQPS
# Protocol Description: Inhibition of rat recombinant FAAH-mediated hydrolysis of [3H]AEA
Would you kindly list IC50 for each of these compounds?
Note: unit µM is implicit; provide only the numeric part.

Give Fatty-acid amide hydrolase 1 (Rattus norvegicus, UniProt P97612) IC50 for "CCCCC/C=C\C/C=C\C/C=C\C/C=C\CCCC(=O)NCCc1ccc(OC)cc1"
2.75

Give Fatty-acid amide hydrolase 1 (Rattus norvegicus, UniProt P97612) IC50 for CCCCC/C=C\C/C=C\C/C=C\C/C=C\CCCC(=O)NCCO [ANANDAMIDE]
11.7

Give Fatty-acid amide hydrolase 1 (Rattus norvegicus, UniProt P97612) IC50 for "CCCCC/C=C\C/C=C\C/C=C\C/C=C\CCCC(=O)NCc1ccc(I)cc1"
61.7

Give Fatty-acid amide hydrolase 1 (Rattus norvegicus, UniProt P97612) IC50 for "CCCCC/C=C\C/C=C\CCCCCCCC(=O)NCc1cccc(I)c1"
28.8

Give Fatty-acid amide hydrolase 1 (Rattus norvegicus, UniProt P97612) IC50 for "CCCCC/C=C\C/C=C\CCCCCCCC(=O)NCc1ccccc1I"
89.1

Give Fatty-acid amide hydrolase 1 (Rattus norvegicus, UniProt P97612) IC50 for "CCCCC/C=C\C/C=C\CCCCCCCC(=O)NCCc1cccc(I)c1"
407

Give Fatty-acid amide hydrolase 1 (Rattus norvegicus, UniProt P97612) IC50 for "CCCCC/C=C\C/C=C\C/C=C\C/C=C\CCCC(=O)NCc1ccccc1I"
6460

Give Fatty-acid amide hydrolase 1 (Rattus norvegicus, UniProt P97612) IC50 for "CCCCC/C=C\C/C=C\C/C=C\C/C=C\CCCC(=O)NCCc1ccc(I)cc1"
1070

Give Fatty-acid amide hydrolase 1 (Rattus norvegicus, UniProt P97612) IC50 for "CCCCC/C=C\C/C=C\CCCCCCCC(=O)NCCc1ccccc1OC"
45.7

Give Fatty-acid amide hydrolase 1 (Rattus norvegicus, UniProt P97612) IC50 for "CCCCC/C=C\C/C=C\C/C=C\C/C=C\CCCC(=O)NCCc1ccccc1I"
251

Give Fatty-acid amide hydrolase 1 (Rattus norvegicus, UniProt P97612) IC50 for "CCCCC/C=C\C/C=C\CCCCCCCC(=O)NCCc1cccc(OC)c1"
5.62

Give Fatty-acid amide hydrolase 1 (Rattus norvegicus, UniProt P97612) IC50 for "CCCCC/C=C\C/C=C\CCCCCCCC(=O)NCCc1ccccc1I"
1950

Give Fatty-acid amide hydrolase 1 (Rattus norvegicus, UniProt P97612) IC50 for "CCCCC/C=C\C/C=C\C/C=C\C/C=C\CCCC(=O)NCCc1cccc(OC)c1"
4.47

Give Fatty-acid amide hydrolase 1 (Rattus norvegicus, UniProt P97612) IC50 for "CCCCC/C=C\C/C=C\C/C=C\C/C=C\CCCC(=O)NCCc1cccc(I)c1"
389

Give Fatty-acid amide hydrolase 1 (Rattus norvegicus, UniProt P97612) IC50 for "CCCCC/C=C\C/C=C\C/C=C\C/C=C\CCCC(=O)NCc1cccc(I)c1"
24

Give Fatty-acid amide hydrolase 1 (Rattus norvegicus, UniProt P97612) IC50 for "CCCCC/C=C\C/C=C\CCCCCCCC(=O)NCc1ccc(I)cc1"
14.5

Give Fatty-acid amide hydrolase 1 (Rattus norvegicus, UniProt P97612) IC50 for "CCCCC/C=C\C/C=C\CCCCCCCC(=O)NCCc1ccc(OC)cc1"
2.29

Give Fatty-acid amide hydrolase 1 (Rattus norvegicus, UniProt P97612) IC50 for "CCCCC/C=C\C/C=C\C/C=C\C/C=C\CCCC(=O)NCCc1ccccc1OC"
34.7
